system: OVCAR-4 ovarian; assay: NCI tumour cell line growth inhibition, 48 h
Measured attribute: GI50

# get_value(readout='GI50', item= Cc1ccc(CNc2ccc(Cl)cc2NCc2ccc(C)c(O)c2)cc1O ) 6.63 µM

# get_value(readout='GI50', item= N#CCC1CCN(c2nc(Nc3ccc(N4CCC(O)CC4)cc3)c3c(=O)[nH]ncc3n2)CC1 ) > 58.1 µM

# get_value(readout='GI50', item= CCn1nc(C#Cc2c(C)ccc3c(Nc4ccc(Cl)cc4)nccc23)c2c(N)ncnc21 ) 6.16 µM

# get_value(readout='GI50', item= O=c1c2cc(F)ccc2sc2c(NCCCNCCO)nc3ccc(F)cc3c12 ) 2.03 µM

# get_value(readout='GI50', item= FC(F)(F)c1ccc(-c2cnc(-c3nn[nH]n3)nc2NC2CCCCCC2)cc1 ) > 10 µM

# get_value(readout='GI50', item= Cc1nn(-c2ccccc2)c2c1[C@@H](C)[C@H]1CC3(CC4(C)C[C@@H]3C1(C)c1c(C)nn(-c3ccccc3)c1N4C)N2C (stereo partly specified) ) 8.66 µM

###

test system: XF 498 CNS; assay: NCI tumour cell line growth inhibition, 48 h
Give TGI for every item shown.

Lab request: please report TGI under test system XF 498 CNS for Cc1c(Cl)ccc2[s+]snc12 55.2 µM

Lab request: please report TGI under test system XF 498 CNS for N#Cc1cccc(C2SCc3nc4ccccc4n32)c1 (stereo not drawn) > 100 µM

Lab request: please report TGI under test system XF 498 CNS for Cc1nc2ccccc2c(=O)n1/N=C(\N=Nc1ccc(Cl)cc1)c1ccc(N(C)C)cc1 96.3 µM

Lab request: please report TGI under test system XF 498 CNS for COC(=O)C(Cc1ccc2c(c1)OCO2)(NC(=O)c1ccccc1)P(=O)(OC)OC (stereo not drawn) > 100 µM

Lab request: please report TGI under test system XF 498 CNS for N#CC1(C2CC(=O)N(c3ccccc3)C2=O)CCCCC1=O (stereo not drawn) > 100 µM

Lab request: please report TGI under test system XF 498 CNS for O=C(O)OC12CCCCCC1C(=O)C1CCCCC12 (stereo not drawn) > 100 µM

Lab request: please report TGI under test system XF 498 CNS for Nc1cc2c(C3OC(CO)C(O)C3O)[nH]nc2c(=S)[nH]1 (stereo not drawn) > 100 µM

Lab request: please report TGI under test system XF 498 CNS for CSC(SC)=C1Sc2cccc(Cl)c2S1 76.9 µM

###

test system: ACHN renal; test: NCI tumour cell line growth inhibition, 48 h
Measured attribute: GI50

# get_value(readout='GI50', item= CCCN1CCCC(c2ccc(Nc3nc(Nc4cc(F)ccc4C(N)=O)c4cc[nH]c4n3)c(OC)c2)C1 (stereo not drawn) ) 2920 nM

# get_value(readout='GI50', item= CC1(C)N=C(N)N=C(N)N1c1cccc(CC(=O)Nc2ccccc2)c1 ) > 100000 nM

# get_value(readout='GI50', item= CC1SC(c2ccc(OCc3ccccc3)cc2)N(NC(=O)C(O)(c2ccccc2)c2ccccc2)C1=O (stereo not drawn) ) 2740 nM

# get_value(readout='GI50', item= COc1cc(/C=C2\C(=O)Nc3ccc(O)cc32)cc(OC)c1OC ) 15900 nM

# get_value(readout='GI50', item= N=C(N)c1ccc(-c2ccc(-c3cccs3)s2)cc1F ) 1450 nM

# get_value(readout='GI50', item= COc1ccc(-c2cc(-c3ccc(Cl)cc3)c(C#N)c(=O)n2CCCCCC(=O)Nc2ccccc2N)cc1 ) 4180 nM

# get_value(readout='GI50', item= COc1cc(F)c(F)c(F)c1C(=O)c1cnc(NC2CCN(S(C)(=O)=O)CC2)nc1N ) 906 nM

# get_value(readout='GI50', item= C=C(CN1CCc2ccccc2C1)c1ccc(C(=O)Nc2cccc(N)c2)cc1 ) 28800 nM

# get_value(readout='GI50', item= N#CSc1c[nH]c2cccc(/C=C/C(=O)/C=C(O)/C=C/c3cccc4[nH]cc(SC#N)c34)c12 ) 351 nM

# get_value(readout='GI50', item= N#CCC1CCN(c2nc(Nc3ccc(N4CCC(O)CC4)cc3)c3c(=O)[nH]ncc3n2)CC1 ) 473 nM

# get_value(readout='GI50', item= CN(C)c1ccc(-c2cc(-c3cccc(NS(C)(=O)=O)c3)nc(N)c2C#N)cc1 ) 67 nM

# get_value(readout='GI50', item= Cc1n[nH]c(C)c1-c1c(C)n[nH]c1C ) 1520 nM

# get_value(readout='GI50', item= COc1ccc2c(c1)OCC1c3cc(OC)ccc3OC21 (stereo not drawn) ) 53100 nM

# get_value(readout='GI50', item= CC(=O)Nc1ccc(S(=O)(=O)N2C(=O)CCC2C(=O)Nc2ccccc2)cc1 (stereo not drawn) ) 241 nM

# get_value(readout='GI50', item= N/C(=N\O)c1cn(C2OC(CO)C(O)C2O)c2ncnc(N)c12 (stereo not drawn) ) 76.4 nM

# get_value(readout='GI50', item= CC(=O)[O-].O=C([CH-]C(=O)c1ccccc1)c1ccccc1.O=C([CH-]C(=O)c1ccccc1)c1ccccc1.[Dy+3] ) 14300 nM

# get_value(readout='GI50', item= Cc1ccccc1C1N=C2Oc3ccccc3C=C2C(=O)N1 (stereo not drawn) ) 2200 nM

# get_value(readout='GI50', item= CNC(=S)N/N=C/CSC/C=N/NC(=S)NC ) > 100000 nM
